# Test system: HL60 (leukemia)
# protocol: In vitro cytotoxic activity (MTT) assay, HL60
# Assay type: cell-based
# settings: Homo sapiens, HL-60; HL60 cells, exposed for 96 hours, 50% inhibition of cell proliferation; read-out: Cytotoxicity activity IC50, HL60 (leukemia)
pIC50: −log10 of the molar value.
reported property: pIC50

mol	endpoint value
O=C(O)c1ncn2c1nc(Nc1cccc(Cl)c1)c1ccncc12	5.44

====

# Test system: H1299 (lung)
# protocol: In vitro cytotoxic activity (MTT) assay, H1299
# Format: cell-based
# settings: Homo sapiens, NCI-H1299; H1299 cells, exposed for 96 hours, 50% inhibition of cell proliferation; read-out: Cytotoxicity activity IC50, H1299 (lung)
pIC50: −log10 of the molar value.

mol	pIC50
O=C(O)c1ncn2c1nc(Nc1cccc(Cl)c1)c1ccncc12	5.72
